Task for the reader: assign each of the following molecules its reported melting point.

Illustrative cases are given below, each with its answer.
COC(=O)c1cc([C@]2(c3ccc(F)c(-c4cncnc4)c3)N=C(N)N(C)C2=O)cn1CCF [Example 119A] = 186 to 188 °C
CCn1cc(C2(c3cccc(-c4cccnc4F)c3)N=C(N)N(C)C2=O)cc1C(=O)NC1CCCC1 (centres unmarked) = 127 to 128 °C
CCC(=O)c1cc(C2(c3cccc(-c4cccnc4F)c3)N=C(N)N(C)C2=O)cn1CC (centres unmarked) = 126 to 128 °C
COC(=O)c1cc(C2(c3cccc(-c4ccc(F)c(F)c4)c3)N=C(N)N(C)C2=O)cn1CCF (centres unmarked) = 125 to 128 °C

Take each entry in turn and give its melting point.
1. CN1C(=O)C(c2cccc(-c3cncnc3)c2)(c2cc(C#N)n(CCF)c2)N=C1N (centres unmarked)
2. COc1cccc(-c2cc(C3(c4cnn(C(C)C)c4)N=C(N)N(C)C3=O)ccc2F)c1 (centres unmarked)
3. CCC(=O)c1cc(C2(c3cccc(OCCC(C)(C)C)c3)N=C(N)N(C)C2=O)cn1CC (centres unmarked)
4. CCCn1cc(C2(c3cccc(-c4cc(F)cnc4Cl)c3)N=C(N)N(C)C2=O)cc1C#N (centres unmarked)

["193 to 194 °C", "112 to 114 °C", "93 °C", "132 to 134 °C"]
